# system.under.test: BRC1 (His-BRC1) (Solanum lycopersicum (tomato), UniProt A0A3Q7HTP5 1-406)
# Sequence (A0A3Q7HTP5 entry or part of it): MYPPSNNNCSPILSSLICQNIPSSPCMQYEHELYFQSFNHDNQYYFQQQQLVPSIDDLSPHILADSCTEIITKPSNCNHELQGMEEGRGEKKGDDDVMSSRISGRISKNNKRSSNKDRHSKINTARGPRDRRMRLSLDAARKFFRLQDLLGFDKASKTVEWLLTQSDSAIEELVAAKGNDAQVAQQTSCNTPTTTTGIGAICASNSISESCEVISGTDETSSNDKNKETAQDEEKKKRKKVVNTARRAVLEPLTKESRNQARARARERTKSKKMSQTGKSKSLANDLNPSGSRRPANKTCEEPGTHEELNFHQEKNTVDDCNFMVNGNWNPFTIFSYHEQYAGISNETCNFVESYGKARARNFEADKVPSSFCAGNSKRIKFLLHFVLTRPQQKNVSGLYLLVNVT
# measurement.protocol: EMSA; Light Shift Chemiluminescent EMSA kit (Thermo 20148) per manufacturer; buffer, salt, pH and temperature not stated
# measurement.context: protein: recombinant; tags: His (pET-32a); chain copies: 2; label: 3' biotin (probe); blunt
quantity.name: binding result

GA2ox4-B mut (dsDNA) DNA 1: TCCCAAATTTTCGAATTATTAGAAAAAAATTTTTTTTAAAAAAA DNA 2: TTTTTTTAAAAAAAATTTTTTTCTAATAATTCGAAAATTTGGGA = no binding
GA2ox5-A WT (dsDNA) DNA 1: CAATTGTTTTGTGGGGAAAGGGTGCCCTTTCTTTTTTATTCCAA DNA 2: TTGGAATAAAAAAGAAAGGGCACCCTTTCCCCACAAAACAATTG = binds
GA2ox5-A mut (dsDNA) DNA 1: CAATTGTTTTGTGGGGAAAGAATGAACTTTCTTTTTTATTCCAA DNA 2: TTGGAATAAAAAAGAAAGTTCATTCTTTCCCCACAAAACAATTG = no binding

The reported numbers originate from paper PMC10120035.
